system: PPARg homodimer (NR concentration 180 nM); experiment: PBM binding z-score (relative to random genomic background probes); higher = stronger binding; sequences stand for … in GC…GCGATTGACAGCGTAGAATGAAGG
Overview of reported PBM binding z-score across a group of sequences:

Worked examples follow.
1. ATATGTAGGTTAACTGGGGTCATTCAGACTAGGC ... 1.95
2. ATCGAAAGGTCGAAGGTGCGTATACCCACCCGAA ... 0.794
3. CCTTAGGGGTCACTCCAGGTTATAGCATCGGAGT ... 3.42
4. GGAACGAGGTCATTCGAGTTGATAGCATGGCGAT ... 1.95
5. AATACAGGGTGACTAGGCCAGAGTAGGTACGAAT ... 0.246
6. GCTAGTTGGTCAGTAAAAGGTGACACACCGGTCG ... 0.86

Proceeding to the next sequence to report its PBM binding z-score.
// query PBM binding z-score value for entry CCTAGTTGGTCAAGGTCACATACGCTATAGGTAC
3.03

###

Examples of sequences with documented PBM binding z-score follow.
system: PPARg:RXRa IVT, anti-PPARg (NR concentration 270 nM, RXRa partner concentration 90 nM); test: PBM binding z-score (relative to random genomic background probes); higher = stronger binding; sequences stand for … in GC…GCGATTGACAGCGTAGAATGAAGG
# answer = number (no unit)

Solved cases (6 shown):
1. ATCGAAAGGTCCACGAGGTGAGTATACACCGTTT ... 0.791
2. CCTACTGGGCCACGAAAGGCCATTGATTCAGTGA ... 5.01
3. TGTATGAGGTTAAAGATCAGGGAACGTGGCGTCG ... 1.99
4. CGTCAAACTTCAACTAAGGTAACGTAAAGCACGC ... 0.514
5. CGAACGAGGTCAAAGGACAGTGAAAGGCGACGTA ... 6.29
6. AGAACGAGGTCACGCTGAGTTGATAGCAGAGTAG ... 7.41

May I ask what PBM binding z-score has been recorded for CGAACTAGGTCAAGGCCAGTGAATCTCCGCACGC ?
8.42

Queued: TTACCAAGGTGAAAGGTCGTTGCTGCACGCCTTG
5.07

Follow-up entry: ATATGTAGTTTATCGGGTCATTCAGTTTGCGCAT
3.77

// query: CCGAGAAGGTTACGAGGGGGCATTCAGTGCGAAT
2.5

What do you get for CGAACTACGTCATCCAGGACAGTGAATACATTGA ?
0.155

Now consider GCTGCTAGGTCAACTGATGGTCATCTAAAGCTCG .
4.36

Now consider CAAACCAGGTCACAGAGGTCAAAGTCCGTGCGTA and answer again.
7.43

Now consider ATATGTAGGTTGGGGTCATTCAGAAAGTAGGGAA .
4.46

And then TCTAGTTGGTCAAAGGTCACGCACTCGAAATGCG , what is it?
6.68

Repeat for the following sequence: AACGAAAGGTCGAAGGTGAGTATACCCACCCGAA
2.16

Let us now turn to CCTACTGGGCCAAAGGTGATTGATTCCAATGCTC
5.36

Please answer likewise for CCTTACGGGTCACGTGGTTATAGCACGACGAGCG
4.93

Note, next up: CTACCAAGGTCAACAAGGTCGTTGATTACTATTC
4.74

Moving on to TCTTGTAGATCGATAGAGGTTAAGAAAGTGCGCT
0.198

Then this sequence: TAGCCTAGGTCATTCAGGGGCCAGCATAGAAAGC
2.78

Next sequence: TCTCGGAGGACACCAAAGGTCAGAGCTCGACATC
1.71

Next sequence: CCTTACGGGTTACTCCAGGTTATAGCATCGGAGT
0.994

What would you report for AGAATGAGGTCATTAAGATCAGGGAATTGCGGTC ?
6.13

Try ATATGTAGGATAGCTGGGGTCATTCAGACTAGGC next.
2.82
